System: DNA
Assay: Binding affinity to calf thymus DNA assessed as intercalation at 20 uM after 10 mins measured at 350 to 500 nm wavelength by circular dichroism spectroscopic analysis
Assay type: nucleic-acid assay
Conditions: Bos taurus
The source made the active and inactive calls. The calls are words filed in the database; no cut-off is given here.
Assay metric: Activity

• CN1CCN(CCOc2ccc(-c3c(-c4ccc(OCCN5CCN(C)CC5)cc4)c4ccccc4oc3=O)cc2)CC1 = Active
• CCN(CC)CCOc1ccc(-c2c(-c3ccccc3)c3ccc(OCCN(CC)CC)cc3oc2=O)cc1 = Active
• O=c1oc2cc(OCCN3CCCCC3)ccc2c(-c2ccccc2)c1-c1ccc(OCCN2CCCCC2)cc1 = Active
• CCN(CC)CCOc1ccc(-c2c(-c3ccc(OCCN(CC)CC)cc3)c3ccccc3oc2=O)cc1 = Active
• O=c1oc2ccccc2c(-c2ccc(OCCN3CCCCC3)cc2)c1-c1ccc(OCCN2CCCCC2)cc1 = Active
• CN1CCN(CCOc2ccc(-c3c(-c4ccccc4)c4ccc(OCCN5CCN(C)CC5)cc4oc3=O)cc2)CC1 = Active
